- experimental-target: Fuc(a1-2)Gal(b1-4)[Fuc(a1-3)]GlcNAc(b1-2)[Fuc(a1-2)Gal(b1-4)[Fuc(a1-3)]GlcNAc(b1-4)]Man(a1-3)[Fuc(a1-2)Gal(b1-4)[Fuc(a1-3)]GlcNAc(b1-2)Man(a1-6)]Man(b1-4)GlcNAc(b1-4)GlcNAc
- measurement-description: glycan array binding signal (z-score within array); higher = stronger binding
- experimental-conditions: glycan notation: IUPAC condensed, linker removed
This is one part of a sample in which the strongest signals are shown more often than they occur.
For each of the binders below, state its glycan array binding signal (z-score).

## Input Which glycan array binding signal (z-score) value is on record for AT1G15820(NC) (Arabidopsis thaliana) (protein) MAMAVSGAVLSGLGSSFLTGGKRGATALASGVGDAIAPFSFGSLLGTQLLLMGWVESKRWVDFFNPDSQSVEWATPWSKTAENFANYTGDQGYPGGRFFDPLGLAGKNRDGVYEPDFEKLERLKLAEIKHSRLAMVAMLIFYFEAGQGKTPLGALGL ?
## Output -0.506

## Input What does the record list as glycan array binding signal (z-score) for MGL1 (Mus musculus), P49300 (protein) MIYENLQNSRIEEKTQEPGKAPSQSFLWRILSWTHLLLFSLGLSLLLLVVVSVIGSQNSQLRRDLGTLRATLDNTTSKIKAEFQSLDSRADSFEKGISSLKVDVEDHRQELQAGRDLSQKVTSLESTVEKREQALKTDLSDLTDHVQQLRKDLKALTCQLANLKNNGSEVACCPLHWTEHEGSCYWFSESEKSWPEADKYCRLENSHLVVVNSLEEQNFLQNRLANVVSWIGLTDQNGPWRWVDGTDFEKGFKNWAPLQPDNWFGHGLGGGEDCAHITTGGPWNDDVCQRTFRWICEMKLAKES ?
## Output 0.824

## Input Please look up its glycan array binding signal (z-score): Lb MiSSP8 (Laccaria bicolor) (protein) MYFHTLFACATLMLITTAHASPTVINSLDSRKADLNGDVEARHAADWRRDSDWRRDSDWRRDSDWRRDSD
## Output 1.27

## Input What glycan array binding signal (z-score) value was documented for this binder, HML-Native (Hypnea musciformis), P84871 (protein) QKFCTLDIAPVCCQIVIGGGMYTAGNACMCEGFVSGVGRCENPKECPCTREAQIPSCCSSRWGLVSVTGKCACDCLGGTVAFPEPCPSPY ?
## Output -0.059

## Input Data request, read-out glycan array binding signal (z-score), for B936 (Bifidobacterium sp) (protein) MKNWKKAIALVASAAALVSVAACGPSNAGGSSDSGKKTVGFVAVGPEGGFRTANEKDIQKAFEDAGFDLTYSPTQNNDQQKQIQAFNKFVNDEVDAIILSSTEDSGWDDSLKKAAEAEIPVFTVDRNVDVKDAEAKKAIVAHIGPSNVWCGEQAAEFVNKNFPDGANGFILEGPAGLSVVKDRGTGWGNKVASNVKVLESQSANWSTDEAKTVTAGLLDKYKSDNPQFIFAQNDEMGLGAAQAVDAAGLKGKVKIITIDGTKNALQALVDGDLSYVIEYNPIFGKETAQAVKDYLDGKTVEKDIEIESKTFDAASAKEALDNNTRAY
## Output 0.564

## Input What does the record list as glycan array binding signal (z-score) for AT5G01260(PC)(40) (Arabidopsis thaliana), Q9LFB0 (protein) MIGIGRTLTSSSPSKIILEDLPPGIYRYGTEIFTSVPRKTFHHIKFLRLDSAQSSRILKPVPLRSSSIKDSQVNVEDEEIEASNKTVRVRFQLRKECVFGEHFFIVGDDPVFGGLWDPETALPLNWSDGNVWTVDLDLPVGRLVEFKLLLKAQTGEILWQPGPNRALETWETNKTIRICEDWDNADLQMMIEEDFVPYTNISSIGSEDEDEVLGSVQQNSSVVAVENAGYVSDESAQNSSFSIQSEKTMEPSNGALTAREVIKEAMFTEEESPVLVPGLIPLSDLDNEQVEVINEGKAETFPEVDKKQEPKAERNKKAKVKAISLFEKSEQEAVKSVEQRQYNAVEEEQQRLETEPLGTPDVLFENDIQWGRRTLYKLLSNFRLF ?
## Output 0.175

## Input Need glycan array binding signal (z-score), item CALR truncated at D342 (Homo sapiens) (protein) EPAVYFKEQFLDGDGWTSRWIESKHKSDFGKFVLSSGKFYGDEEKDKGLQTSQDARFYALSASFEPFSNKGQTLVVQFTVKHEQNIDCGGGYVKLFPNSLDQTDMHGDSEYNIMFGPDICGPGTKKVHVIFNYKGKNVLINKDIRCKDDEFTHLYTLIVRPDNTYEVKIDNSQVESGSLEDDWDFLPPKKIKDPDASKPEDWDERAKIDDPTDSKPEDWDKPEHIPDPDAKKPEDWDEEMDGEWEPPVIQNPEYKGEWKPRQIDNPDYKGTWIHPEIDNPEYSPDPSIYAYDNFGVLGLDLWQVKSGTIFDNFLITNDEAYAEEFGNETWGVTKAAEKQMKD
## Output 2.8

## Input Would you mind telling me what glycan array binding signal (z-score) value was observed for Jacalin (Artocarpus integrifolia) (protein) MAYSSLLSLSVLALLFSISSADTRKWFLANGINQNPIGIIEAAVGVSEDLLNLNGMEAKNDEQSGISQTVIVGPWGAKVSTSSNGKAFDDGAFTGIREINLSYNKETAIGDFQVVYDLNGSPYVGQNHKSFITGFTPVKISLDFPSEYIMEVSGYTGNVSGYVVVRSLTFKTNKKTYGPYGVTSGTPFNLPIENGLIVGFKGSIGYWLDYFSMYLSL ?
## Output -0.131

## Input Quick one: glycan array binding signal (z-score) of MFG-E8 (Homo sapiens), Q08431 (protein) MPRPRLLAALCGALLCAPSLLVALDICSKNPCHNGGLCEEISQEVRGDVFPSYTCTCLKGYAGNHCETKCVEPLGLENGNIANSQIAASSVRVTFLGLQHWVPELARLNRAGMVNAWTPSSNDDNPWIQVNLLRRMWVTGVVTQGASRLASHEYLKAFKVAYSLNGHEFDFIHDVNKKHKEFVGNWNKNAVHVNLFETPVEAQYVRLYPTSCHTACTLRFELLGCELNGCANPLGLKNNSIPDKQITASSSYKTWGLHLFSWNPSYARLDKQGNFNAWVAGSYGNDQWLQVDLGSSKEVTGIITQGARNFGSVQFVASYKVAYSNDSANWTEYQDPRTGSSKIFPGNWDNHSHKKNLFETPILARYVRILPVAWHNRIALRLELLGC ?
## Output 2.94

Origin of the recorded values: the supplement of paper PMC8728848
